Cited source for all entries: PubChem BioAssay AID248

system: L1210 leukemia ip in BDF1 mice, survival T/C; experiment: NCI In Vivo Anticancer Drug Screen. Data for tumor model L1210 Leukemia (intraperitoneal) in B6D2F1 (BDF1) mice; conditions: endpoint: mean survival time; dose: 300.0 mg/kg/injection; schedule: Q01DX001 (ip); vehicle: saline; higher = longer survival
Inconclusive results and toxic doses are left out.
Attribute Measured: T/C

>>> experimental_value("CN(C)CCc1ccc(Nc2ccnc3cc(Cl)ccc23)cc1")
"95 % of control"
>>> experimental_value("CC12C(=O)NC(=O)N3CCCN4C(=O)NC(=O)C1(C)C4C32 (configuration not stated)")
"100 % of control"
>>> experimental_value("CCOC(=O)NC(CI)(c1ccccc1)c1ccccc1")
"92 % of control"
>>> experimental_value("CC(C)=NNC(=O)c1ccc[n+](Cc2ccccc2)c1")
"105 % of control"
>>> experimental_value("CCC(COC(=O)c1ccccc1)NC1CCCC1 (configuration not stated)")
"111 % of control"
>>> experimental_value("O=C(CBr)NC(Cc1ccccc1)C(=O)O (configuration not stated)")
"90 % of control"
>>> experimental_value("OC(c1ccccc1)C(c1ccccc1)N1CCCC1 (configuration not stated)")
"92 % of control"
